Provide the reported selective drug sensitivity score of each item.
# System: LC4-1
# Test name: selective drug sensitivity score (sDSS, relative to normal bone marrow) (sDSS (score)); higher = more potent and effective on the cell line relative to normal bone marrow cells;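 note: ALL cell lines in 384-well plates, five doses spanning 10,000-fold, each plate scaled between vehicle and 100 µmol/L benzalkonium chloride controls, sDSS an adapted area-under-curve metric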
# Conditions: 72 h
Respond numerically, and do not add a unit to the figure.

Query string: Indicate its recorded selective drug sensitivity score; the compound in question is Cc1cc(C)c(CNC(=O)c2cc(-c3ccc(CN4CCOCC4)cc3)cc3c2cnn3C2CCCC2)c(=O)[nH]1 [EPZ-5687] (top concentration 10000 nM)
Result string: -0.36

Query string: Indicate its recorded selective drug sensitivity score; the compound in question is Cc1cc2c(C(=O)NC[C@H](C)c3ccccc3)c(O)c(O)cc2c(O)c1-c1c(C)cc2c(C(=O)NC[C@H](C)c3ccccc3)c(O)c(O)cc2c1O [Sabutoclax] (top concentration 25000 nM)
Result string: 13.8

Query string: Indicate its recorded selective drug sensitivity score; the compound in question is C[C@]1(c2nc3c(C(N)=O)cccc3[nH]2)CCCN1 [Veliparib] (top concentration 10000 nM)
Result string: -4.18

Query string: Indicate its recorded selective drug sensitivity score; the compound in question is CN[C@@H](C)C(=O)N[C@H]1CN(C(=O)CC(C)C)CC[C@H]2CC[C@@H](C(=O)NC(c3ccccc3)c3ccccc3)N2C1=O [AT-406] (top concentration 10000 nM)
Result string: -1.26

Query string: Indicate its recorded selective drug sensitivity score; the compound in question is Cc1cc(OCc2nnc(SC3CCCC3)n2-c2cccnc2)ccc1-c1ccc(S(C)(=O)=O)cc1 [NMS-873] (top concentration 10000 nM)
Result string: 4.76

Query string: Indicate its recorded selective drug sensitivity score; the compound in question is C=CC(=O)N1CCC[C@@H](n2nc(-c3ccc(Oc4ccccc4)cc3)c3c(N)ncnc32)C1 [Ibrutinib] (top concentration 1000 nM)
Result string: 1

---

# Tested on: 697
# Test name: selective drug sensitivity score (sDSS, relative to normal bone marrow) (sDSS (score)); higher = more potent and effective on the cell line relative to normal bone marrow cells
# Conditions: 72 h
Provide the reported selective drug sensitivity score of each item.
Respond numerically, and do not add a unit to the figure.

Query string: Indicate its recorded selective drug sensitivity score; the compound in question is Cc1nc(Nc2ncc(C(=O)Nc3c(C)cccc3Cl)s2)cc(N2CCN(CCO)CC2)n1 [Dasatinib] (top concentration 1000 nM)
Result string: 3.1

Query string: Indicate its recorded selective drug sensitivity score; the compound in question is Nc1cc(COc2c(Cl)cc(C[C@H](N)C(=O)O)cc2Cl)c2oc(-c3ccccc3)nc2c1 [JPH203] (top concentration 5000 nM)
Result string: 0

Query string: Indicate its recorded selective drug sensitivity score; the compound in question is CCN(CC)Cc1ccc2cc(COC(=O)Nc3ccc(C(=O)NO)cc3)ccc2c1 [Givinostat] (top concentration 1000 nM)
Result string: 4.8

Query string: Indicate its recorded selective drug sensitivity score; the compound in question is COc1cc(Nc2ncc(F)c(Nc3ccc4c(n3)N(COP(=O)(O)O)C(=O)C(C)(C)O4)n2)cc(OC)c1OC [Fostamatinib] (top concentration 2500 nM)
Result string: 3.16

Query string: Indicate its recorded selective drug sensitivity score; the compound in question is NCC(=O)Nc1ccc(-n2nc(C(F)(F)F)cc2-c2ccc3c(ccc4ccccc43)c2)cc1 (top concentration 25000 nM)
Result string: 10.8

---

# Tested on: MHH-CALL-2
# Test name: selective drug sensitivity score (sDSS, relative to normal bone marrow) (sDSS (score)); higher = more potent and effective on the cell line relative to normal bone marrow cells
# Conditions: 72 h
Observation type: selective drug sensitivity score
Respond numerically, and do not add a unit to the figure.

Query string: Indicate its recorded selective drug sensitivity score; the compound in question is Nc1nc(Cl)nc2c1ncn2[C@@H]1O[C@H](CO)[C@@H](O)[C@@H]1F [Clofarabine] (top concentration 10000 nM)
Result string: 9.2

Query string: Indicate its recorded selective drug sensitivity score; the compound in question is C#Cc1cccc(Nc2ncnc3cc4c(cc23)OCCOCCOCCO4)c1 [Icotinib] (top concentration 10000 nM)
Result string: 4.8

Query string: Indicate its recorded selective drug sensitivity score; the compound in question is CC(C)(C)c1cnc(CSc2cnc(NC(=O)C3CCNCC3)s2)o1 [SNS-032] (top concentration 10000 nM)
Result string: 2.96

Query string: Indicate its recorded selective drug sensitivity score; the compound in question is CC1(C)CC[C@]2(NC(=O)C(C)(F)F)CC[C@]3(C)[C@H](C(=O)C=C4[C@@]5(C)C=C(C#N)C(=O)C(C)(C)[C@@H]5CC[C@]43C)[C@@H]2C1 [Omaveloxolone] (top concentration 10000 nM)
Result string: 0.58

Query string: Indicate its recorded selective drug sensitivity score; the compound in question is CC/C(=C(\c1ccccc1)c1ccc(OCCN(C)C)cc1)c1ccccc1 [Tamoxifen] (top concentration 10000 nM)
Result string: 0.82

Query string: Indicate its recorded selective drug sensitivity score; the compound in question is C/C=C1\NC(=O)[C@H]2CSSCC/C=C/[C@H](CC(=O)N[C@H](C(C)C)C(=O)N2)OC(=O)[C@H](C(C)C)NC1=O [Romidepsin] (top concentration 1000 nM)
Result string: 6.76

---

Provide the reported selective drug sensitivity score of each item.
# Test system: ALL-SIL
# Test name: selective drug sensitivity score (sDSS, relative to normal bone marrow) (sDSS (score)); higher = more potent and effective on the cell line relative to normal bone marrow cells
# Conditions: 72 h
Respond numerically, and do not add a unit to the figure.

Query string: Indicate its recorded selective drug sensitivity score; the compound in question is COc1ccccc1S(=O)(=O)Nc1ccc2c(c1)CN(C)C(=O)N2 [PFI-1] (top concentration 30000 nM)
Result string: 2

Query string: Indicate its recorded selective drug sensitivity score; the compound in question is CO[C@H]1C[C@@H]2CC[C@@H](C)[C@@](O)(O2)C(=O)C(=O)N2CCCC[C@H]2C(=O)O[C@H]([C@H](C)C[C@@H]2CC[C@@H](OP(C)(C)=O)[C@H](OC)C2)CC(=O)[C@H](C)/C=C(\C)[C@@H](O)[C@@H](OC)C(=O)[C@H](C)C[C@H](C)/C=C/C=C/C=C/1C [Ridaforolimus] (top concentration 100 nM)
Result string: 3.06

---

# System: COG-LL-317
# Test name: selective drug sensitivity score (sDSS, relative to normal bone marrow) (sDSS (score)); higher = more potent and effective on the cell line relative to normal bone marrow cells
# Conditions: 72 h
Observation type: selective drug sensitivity score
Respond numerically, and do not add a unit to the figure.

Query string: Indicate its recorded selective drug sensitivity score; the molecule in question is CCN1C(=O)CNc2ncc(-c3ccc(-c4nc[nH]n4)nc3C)nc21 [CC-115] (top concentration 10000 nM)
Result string: 0.54

Query string: Indicate its recorded selective drug sensitivity score; the molecule in question is CC1(COc2ccc3c(c2)ncn3-c2ccc3cccc(N4CCC(N)CC4)c3n2)COC1 [Crenolanib] (top concentration 10000 nM)
Result string: 2.08

Query string: Indicate its recorded selective drug sensitivity score; the molecule in question is Cn1cncc1[C@@](N)(c1ccc(Cl)cc1)c1ccc2c(c1)c(-c1cccc(Cl)c1)cc(=O)n2C [Tipifarnib] (top concentration 10000 nM)
Result string: 15.3

Query string: Indicate its recorded selective drug sensitivity score; the molecule in question is CC(C)Oc1ccc(C(=O)N[C@H](CNC(=O)CN(C)C)Cc2ccc(-c3cn4cccc([C@H](C)O)c4n3)cc2)cc1Cl (top concentration 10000 nM)
Result string: 16.6

Query string: Indicate its recorded selective drug sensitivity score; the molecule in question is NC[C@@](O)(c1ccc(Cl)cc1)c1ccc(-c2cn[nH]c2)cc1 (top concentration 10000 nM)
Result string: 0.98

Query string: Indicate its recorded selective drug sensitivity score; the molecule in question is CC1(C)NC(=O)N(c2ccc([N+](=O)[O-])c(C(F)(F)F)c2)C1=O [Nilutamide] (top concentration 10000 nM)
Result string: -0.48

Query string: Indicate its recorded selective drug sensitivity score; the molecule in question is C=CC(=O)N1CCC[C@@H](n2nc(-c3ccc(Oc4ccccc4)cc3)c3c(N)ncnc32)C1 [Ibrutinib] (top concentration 1000 nM)
Result string: 0

Query string: Indicate its recorded selective drug sensitivity score; the molecule in question is Cc1cc(F)c(C(=O)Nc2cccc(-c3nncn3C(C)C)n2)cc1-n1cnc(C2CC2)c1 [Selonsertib] (top concentration 1000 nM)
Result string: 0

Query string: Indicate its recorded selective drug sensitivity score; the molecule in question is Cc1cc(C(C)Nc2ccccc2)c2nc(N3CCOCC3)cc(=O)n2c1 (stereo not given) [TGX-221] (top concentration 10000 nM)
Result string: -1.64

Query string: Indicate its recorded selective drug sensitivity score; the molecule in question is Nc1nc(N)c2nc(-c3cccc(O)c3)c(-c3cccc(O)c3)nc2n1 [TG100-115] (top concentration 10000 nM)
Result string: -0.1

Query string: Indicate its recorded selective drug sensitivity score; the molecule in question is COc1cc([C@@H]2c3cc4c(cc3[C@@H](O[C@@H]3O[C@@H]5CO[C@@H](c6cccs6)O[C@H]5[C@H](O)[C@H]3O)[C@H]3COC(=O)[C@H]23)OCO4)cc(OC)c1O [Teniposide] (top concentration 10000 nM)
Result string: 0

Query string: Indicate its recorded selective drug sensitivity score; the molecule in question is Cc1c(C(=O)Nc2ccc(N3C[C@@H](C)O[C@@H](C)C3)nc2)cccc1-c1ccc(OC(F)(F)F)cc1 [Sonidegib] (top concentration 10000 nM)
Result string: -1.02

Query string: Indicate its recorded selective drug sensitivity score; the molecule in question is COc1cc2ncnc(Nc3cccc(Cl)c3F)c2cc1OC(=O)N1CCN(C)C[C@H]1C [AZD3759] (top concentration 1000 nM)
Result string: -0.04

Query string: Indicate its recorded selective drug sensitivity score; the molecule in question is CC(C)C[C@H](NC(=O)CNC(=O)c1cc(Cl)ccc1Cl)B(O)O [Ixazomib] (top concentration 1000 nM)
Result string: 6.26

Query string: Indicate its recorded selective drug sensitivity score; the molecule in question is Cc1c(F)cc(C(=O)NC2CC2)cc1-c1ccc(C(=O)NCC(C)(C)C)cn1 [Losmapimod] (top concentration 10000 nM)
Result string: -0.18

Query string: Indicate its recorded selective drug sensitivity score; the molecule in question is COCCOc1cnc2ccn([C@H](C)c3nnc4c(F)cc(-c5cnn(C)c5)cn34)c(=O)c2c1 [AMG-337] (top concentration 10000 nM)
Result string: -0.06

Query string: Indicate its recorded selective drug sensitivity score; the molecule in question is COc1cc2/c(=N/c3ccc(Br)cc3F)nc[nH]c2cc1OCC1CCN(C)CC1 [Vandetanib] (top concentration 1000 nM)
Result string: -0.22

Query string: Indicate its recorded selective drug sensitivity score; the molecule in question is CS(=O)(=O)N1CCN(Cc2cc3nc(-c4cccc5[nH]ncc45)nc(N4CCOCC4)c3s2)CC1 [Pictilisib] (top concentration 10000 nM)
Result string: -0.94

Query string: Indicate its recorded selective drug sensitivity score; the molecule in question is N#Cc1ccnc(N2C(=O)CC[C@H]2C(=O)N(c2cncc(F)c2)[C@H](C(=O)NC2CC(F)(F)C2)c2ccccc2Cl)c1 [Ivosidenib] (top concentration 10000 nM)
Result string: 1.8

Query string: Indicate its recorded selective drug sensitivity score; the molecule in question is Cc1cc(Nc2ncc(Cl)c(Nc3ccccc3S(=O)(=O)C(C)C)n2)c(OC(C)C)cc1C1CCNCC1 [Ceritinib] (top concentration 2500 nM)
Result string: -3.44

Query string: Indicate its recorded selective drug sensitivity score; the molecule in question is CC1(C)OCCn2c1nc1c(N3CCOCC3)nc(-c3cnc(N)nc3)nc12 [GDC-0084] (top concentration 10000 nM)
Result string: 3.1

Query string: Indicate its recorded selective drug sensitivity score; the molecule in question is COc1cc2ncnc(Nc3ccc(F)c(Cl)c3)c2cc1NC(=O)/C=C/CN1CCCCC1 [Dacomitinib] (top concentration 1000 nM)
Result string: -0.44

Query string: Indicate its recorded selective drug sensitivity score; the molecule in question is CNC(=O)c1cc(Oc2ccc(NC(=O)Nc3ccc(Cl)c(C(F)(F)F)c3)cc2)ccn1 [Sorafenib] (top concentration 1000 nM)
Result string: 0

Query string: Indicate its recorded selective drug sensitivity score; the molecule in question is CC(C)(C)C[C@@H]1N[C@@H](C(=O)N[C@H]2CC[C@H](O)CC2)[C@H](c2cccc(Cl)c2F)[C@]12C(=O)Nc1cc(Cl)ccc12 (top concentration 10000 nM)
Result string: 19.9

Query string: Indicate its recorded selective drug sensitivity score; the molecule in question is CC(C)Cn1cnc2c(N)nc3ccccc3c21 [Imiquimod] (top concentration 2500 nM)
Result string: 0
